# test protocol: Apparent oral clearance in healthy human at 80 mg, po administered as four 20 mg immediate release tablets daily for 3 days during 10 hrs overnight fasting state measured after 3 day
# Assay type: ADME, organism-based
# setup conditions: in vivo
observation type: CL/F (mL/min)
The reply should contain only the number, in mL/min.

Tell me measured CL/F for C[C@H]1[C@H](N2CCS(=O)(=O)CC2)O[C@@H]2O[C@@]3(C)CC[C@H]4[C@H](C)CC[C@@H]1[C@@]24OO3 please. 3950

###

# test protocol: Apparent volume of distribution with respect to the bioavailability in healthy human at 20 mg, po administered as single ascending doses as solution during 10 hrs overnight fasting state
# Format: ADME, organism-based
# setup conditions: in vivo, read-out: Vc/F
observation type: Vd/F (L/kg)
Just the number please, in L/kg, no unit attached.

Kindly indicate its recorded Vd/F. Item: C[C@H]1[C@H](N2CCS(=O)(=O)CC2)O[C@@H]2O[C@@]3(C)CC[C@H]4[C@H](C)CC[C@@H]1[C@@]24OO3 19.1

###

# test protocol: Apparent volume of distribution with respect to the bioavailability in healthy human at 10 mg, po administered as single ascending doses as solution during 10 hrs overnight fasting state
# Type: ADME, organism-based
# setup conditions: in vivo, read-out: Vc/F
observation type: Vd/F (L/kg)
Reply with just the number (in L/kg).

Please report Vd/F for the following compound: C[C@H]1[C@H](N2CCS(=O)(=O)CC2)O[C@@H]2O[C@@]3(C)CC[C@H]4[C@H](C)CC[C@@H]1[C@@]24OO3 8.93

###

# test protocol: Cmax in healthy human plasma at 40 mg, po administered as two 20 mg immediate release tablets daily for 3 days during 10 hrs overnight fasting state measured after 1 day
# Assay type: ADME, organism-based
# Design: dose 40 mg, route oral
observation type: Cmax (ng/mL)
Give just the number in ng/mL; leave the unit off.

Quickly give me recorded Cmax for C[C@H]1[C@H](N2CCS(=O)(=O)CC2)O[C@@H]2O[C@@]3(C)CC[C@H]4[C@H](C)CC[C@@H]1[C@@]24OO3 96.4

###

# Test system: Plasma
# test protocol: Ratio of Cmax in healthy human plasma at 80 mg, po administered as four 20 mg immediate release tablets daily for 3 days during 10 hrs overnight fasting state measured after 1 day to Cmax in healthy human plasma at 80 mg, po administered as four 20 mg immediate release tablets daily for 3 days during 10 hrs overnight fasting state measured after 3 day
# Type: ADME, organism-based
# setup conditions: in vivo
observation type: Ratio (%)
Supply the numeric figure in %, leaving out any unit text.

Give recorded Ratio. C[C@H]1[C@H](N2CCS(=O)(=O)CC2)O[C@@H]2O[C@@]3(C)CC[C@H]4[C@H](C)CC[C@@H]1[C@@]24OO3 84

###

# test protocol: Apparent volume of distribution with respect to the bioavailability in healthy human at 80 mg, po administered as four 20 mg immediate release tablets daily for 3 days during 10 hrs overnight fasting state measured after 3 day
# Assay type: ADME, organism-based
# setup conditions: in vivo, read-out: Vc/F
observation type: Vd/F
Put down the number, then write its unit next to it.

Quickly give me recorded Vd/F for C[C@H]1[C@H](N2CCS(=O)(=O)CC2)O[C@@H]2O[C@@]3(C)CC[C@H]4[C@H](C)CC[C@@H]1[C@@]24OO3 13.7 L/kg

###

# Tested on: Plasma
# test protocol: Ratio of AUC (0 to infinity) in healthy human plasma at 80 mg, po administered as four 20 mg immediate release tablets daily for 3 days during 10 hrs overnight fasting state measured after 1 day to AUC (0 to infinity) in healthy human plasma at 80 mg, po administered as four 20 mg immediate release tablets daily for 3 days during 10 hrs overnight fasting state measured after 3 day
# Assay type: ADME, organism-based
# setup conditions: in vivo
observation type: Ratio (%)
Please give a number only; it is taken to be in %.

Provide measured Ratio on Plasma for C[C@H]1[C@H](N2CCS(=O)(=O)CC2)O[C@@H]2O[C@@]3(C)CC[C@H]4[C@H](C)CC[C@@H]1[C@@]24OO3 [ARTEMIFONE] please. 98.3
